target-of-assay: T1, CTLA4-his (UniProt P16410 36-161, limits assumed)
T1 construct: construct not described; also called Ag CTLA4-his; Antigen CTLA4-his; not shown: his tag
T1 sequence (looked up): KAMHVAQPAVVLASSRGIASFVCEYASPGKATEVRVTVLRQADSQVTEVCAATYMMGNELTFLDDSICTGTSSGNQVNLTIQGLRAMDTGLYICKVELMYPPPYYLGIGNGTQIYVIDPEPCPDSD
protocol-text: SPR Biacore T200, antibody from supernatant captured by anti-human Fc, CTLA4-his injected
This section presents binders with their documented pKd values.
Reminder that pKd means the negative base-10 logarithm of the concentration expressed in mol/L.

In the examples that follow, each entry is paired with its recorded pKd.
- Humanized Ab 10 (VH4 + VL1) (antibody, human IgG1, kappa, V domains shown, Humanized IgG1 derived from MAb A4, full length, HEK293) VH: QVQLVQSGAEVKKPGASVKISCKASGYKFTDHFINWVKQAPGQGLEWIGDINPNNGGTNSNQKFEGRATLTVDTSISTAYMELSRLRSDDTAVYYCARLRREYFYAMDYWGQGTLVTVSS VL: DIVMTQSPLSLPVTPGEPASISCRSSKSLLHSNGITYLYWYLQKPGQSPQLLIYQMSNLASGVPDRFSGSGSGTDFTLKISRVEAEDVGVYYCAQNLELPLTFGGGTKVEIKR: 9.07
- Humanized Ab 1 (VH1 + VL1) (antibody, human IgG1, kappa, V domains shown, Humanized IgG1 derived from MAb A4, full length, HEK293) VH: QVQLVQSGAEVKKPGASVKVSCKASGYKFTDHFINWVRQAPGQGLEWMGDINPNNGGTNSNQKFEGRVTMTRDTSISTAYMELSRLRSDDTAVYYCARLRREYFYAMDYWGQGTLVTVSS VL: DIVMTQSPLSLPVTPGEPASISCRSSKSLLHSNGITYLYWYLQKPGQSPQLLIYQMSNLASGVPDRFSGSGSGTDFTLKISRVEAEDVGVYYCAQNLELPLTFGGGTKVEIKR: 8.92

Let's switch to this binder now.
// pKd lookup, binder = chimeric IgG (antibody, V domains shown, Variable domains of MAb A4 on human IgG1 and kappa, expressed in HEK293; also called murine-human chimeric antibody derived from murine antibody A4) VH: EVQLRQSGPELVKPGTSVKISCKASGYKFTDHFINWVKQNHGKSLEWIGDINPNNGGTNSNQKFEGKATLTVDKSSSTAYMELRSLTSEDSAVYYCARLRREYFYAMDYWGQGTSVTVSS VL: DIVMTQAAFSNPVTLGTSASISCRSSKSLLHSNGITYLYWYLQKPGQSPQLLIYQMSNLASGVPDRFSSSGSGTDFTLRISRVEAEDVGVYYCAQNLELPLTFGAGTKLELKR , result: 10.22
